# Test system: ACHN
# experimental protocol: NCI tumour cell line growth inhibition, 48 h
Activity calls are given as the source filed them. No stated cut-off is given here; in the data, active = GI50 up to about 1.1 µM and inactive = higher. Peptide text beside a SMILES is read from it. * marks the point of attachment. Boc = CC(C)(C)OC(=O)*
# GI50 values compiled below
reported endpoint: GI50

> print(dat)
                                    compound  reported.endpoint       value.observed
 1     Cc1c2ccccc2c(C)n2c1nc1cc(Cl)c(Cl)cc12               GI50   > 10 µM (inactive)
 2  NC(N)=NCCC[C@H](N)C(=O)NCC(=O)N[C@@H](CC(=O)O)c1ncc(NC(=O)C(F)(F)F)o1               GI50   > 25 µM (inactive)
 3          CN(C)/C=N/[C@@H](C(=O)O)c1ccccc1               GI50  > 100 µM (inactive)
 4  CCOCC(NC(=O)C(CC(C)C)NC(=O)OC(C)(C)C)C(N)=O (stereo not drawn) (Boc-Leu-Ser(Et)-NH2; configuration not given here)               GI50  > 100 µM (inactive)
 5                         C1CSCCSCCSCCSCCS1               GI50  > 100 µM (inactive)
 6           C=CCn1cnc2c(O)nc(Nc3ccccc3)nc21               GI50  > 100 µM (inactive)
 7  N#CC(N)(C(=O)C(=O)NCCCNC(=O)C(=O)C(N)(C#N)c1ccc(Cl)cc1)c1ccc(Cl)cc1 (stereo unspecified)               GI50  > 100 µM (inactive)
 8  C=C1CC2CC(=O)C(O)C(C1)C2 (stereo unspecified)               GI50  > 100 µM (inactive)
 9  COc1ccc(C(=O)Nc2ccn(CCOC(=O)c3ccc(OC)cc3)c(=O)n2)cc1               GI50  > 100 µM (inactive)
10  C1=N\CCOCC/N=C/c2ccccc2OCc2cccc(n2)COc2ccccc2/1               GI50   9.23 µM (inactive)
11  COC(=O)CCC1CCc2c(OC)ccc(O)c2C1=O (stereo unspecified)               GI50  > 100 µM (inactive)
12                     CC(=O)CC(=O)N1CCSC1=S               GI50   > 10 µM (inactive)
13  Cc1ccc(NC(=O)CSc2nc(C)nc3c2sc(=S)n3-c2ccccc2)cc1               GI50   8.77 µM (inactive)
14           N#C/C(=C\Nc1ccccn1)C(=O)c1ccco1               GI50  > 100 µM (inactive)
15  COc1ccccc1NC(=O)CC(=O)n1nc(-c2ccccc2)c(/N=N/c2ccccc2[N+](=O)[O-])c1-c1ccccc1               GI50   32.2 µM (inactive)
16       COc1ccc(CCCN2c3ccccc3Sc3ccccc32)cc1               GI50  > 100 µM (inactive)

---

# Tested on: CAKI-1
# experimental protocol: NCI tumour cell line growth inhibition, 48 h
Calls of active or inactive are those of the source. Rule as the data show it: active = GI50 up to about 1.1 µM and inactive = higher.
reported endpoint: GI50

> print(dat)
                                   molecule  experimental.system  reported.endpoint       value.observed
1  Cc1ccc(NC(=O)CSc2nc(C)nc3c2sc(=S)n3-c2ccccc2)cc1               CAKI-1               GI50   > 10 µM (inactive)
2       CN1CCCN(C)C1c1cc([N+](=O)[O-])ccc1O               CAKI-1               GI50  > 100 µM (inactive)
3  O=[N+]([O-])c1ccc(Cl)cc1/C=N/C12CC3CC(CC(C3)C1)C2               CAKI-1               GI50  > 100 µM (inactive)
4  CC1=CC(=O)CCC2(C)C1CC[C@@H]2OC=O (some centres undefined)               CAKI-1               GI50  > 100 µM (inactive)

---

# Tested on: Hs-578T
# experimental protocol: NCI tumour cell line growth inhibition, 48 h
The source made the active and inactive calls. Cut-off read from the data, not from the text of the source: active = GI50 up to about 1.1 µM and inactive = higher.
Classes used: TRUE for active, FALSE for inactive

compound	discrete label
CC(=O)NNc1nc(-c2ccc([N+](=O)[O-])cc2)c(C#N)c(=O)n1C	FALSE
CCOCC(=O)N[C@H]1CCc2cc(OC)c(OC)c(OC)c2-c2ccc(OC)c(=O)cc21	TRUE
CC(=O)OC1C(O)C(C)OC(OC2C(OC(=O)C3CCC4C(C3)OC3(CC(OC(=O)/C=C/c5ccccc5)C(C)CO3)C43CO3)OC(C)C(O)C2OC(C)=O)C1O (centres undefined)	TRUE
Nc1ccc(S(=O)(=O)NCCS(=O)(=O)O)cc1	FALSE

---

# Test system: HL-60
# experimental protocol: NCI tumour cell line growth inhibition, 48 h
Calls of active or inactive are those of the source. No stated cut-off is given here; in the data, active = GI50 up to about 1.1 µM and inactive = higher.
Possible outcomes: active, inactive

> print(dat)
                                    compound  discrete.label
 1  N#CC(C(=O)/C(=N/Nc1nc(S)nn1N)C(C#N)c1ccccc1)c1ccccc1 (configuration not stated)        inactive
 2    Cc1ccc2c(c1)c1ccc3c(c1n2C)C(=O)C=CC3=O          active
 3  [O-][S+](Cc1cnc2ccccc2c1)c1nc2ccccc2nc1-c1cccs1 (configuration not stated)        inactive
 4  COc1ccc(C2C(C#N)=C(S)N(C3OC(COC(C)=O)C(OC(C)=O)C(OC(C)=O)C3OC(C)=O)C(c3ccccc3)=C2C(C)=O)cc1 (configuration not stated)        inactive
 5  CCc1cc2c(cc1CCCC(=O)O)CC1(Cc3ccc(C(=O)O)cc3C1)C2 (configuration not stated)        inactive
 6               Cc1cccc2cc3ccc4ccccc4c3cc12        inactive
 7       CCn1c(=O)c2c(=O)[nH][nH]c2c2ccccc21        inactive
 8                          CN1CCN(CCCBr)CC1        inactive
 9  O=C(O)CCC(NC(=O)c1ccc(OCc2nc3cc(C(F)(F)F)ccc3nc2-c2ccccc2)cc1)C(=O)O (configuration not stated)        inactive
10  c1ccc2c(NCCCCCCCCNc3c4ccccc4nc4ccccc34)c3ccccc3nc2c1          active
11  COc1cc([C@@H]2C3C(=O)c4ccccc4C3[C@@H](c3cc(OC)c(OC)c(OC)c3)C23Cc2ccccc2C3=O)cc(OC)c1OC (some centres not stated)        inactive
12           N#C/C(=C\Nc1ccccn1)C(=O)c1ccco1        inactive

---

# Test system: MDA-MB-435
# experimental protocol: NCI tumour cell line growth inhibition, 48 h
Activity calls are given as the source filed them. No stated cut-off is given here; in the data, active = GI50 up to about 1.1 µM and inactive = higher.
reported endpoint: GI50

> print(dat)
                                   molecule  reported.endpoint        value.observed
1  CCCCCCCCCCCC[C@@H](O)[C@H]1CCC([C@H](O)CCCCC(=O)CCCCCCCC2=C[C@H](C)OC2=O)O1 (stereo partly drawn)               GI50  > 21.3 µM (inactive)
2      CCCCCCN1C(=O)CC(=O)N(CCCCCC)S1(=O)=O               GI50    22.3 µM (inactive)
3          CN(C)/C=N/[C@@H](C(=O)O)c1ccccc1               GI50   > 100 µM (inactive)
4  CC(C)CC(=O)OC[n+]1ccc(-c2c(COC(=O)NC(C)C)c(COC(=O)NC(C)C)c3n2CCC3)cc1               GI50   > 100 µM (inactive)
5  CCc1cc2c(cc1CCCC(=O)O)CC1(Cc3ccc(C(=O)O)cc3C1)C2 (stereo not drawn)               GI50   > 100 µM (inactive)
6    CC1=CC(=O)/C(=C/NC(=S)c2ccccc2)C(=O)O1               GI50   > 100 µM (inactive)
7  O=C(O)C1=NN(c2ccc(S(=O)(=O)O)cc2)C2(C1)C(Cl)C(=O)N2c1nc2ccccc2s1 (stereo not drawn)               GI50    16.2 µM (inactive)
8  O=C(O)CCC(NC(=O)c1ccc(OCc2nc3cc(C(F)(F)F)ccc3nc2-c2ccccc2)cc1)C(=O)O (stereo not drawn)               GI50   > 100 µM (inactive)

---

# System: 786-0
# experimental protocol: NCI tumour cell line growth inhibition, 48 h
Active and inactive are the calls of the source. Cut-off read from the data, not from the text of the source: active = GI50 up to about 1.1 µM and inactive = higher.
Overview of recorded GI50 for various compounds
reported endpoint: GI50

> print(dat)
                                    compound  experimental.system  reported.endpoint       value.observed
 1  NC(=O)NC(=O)C1CCC(=O)N1S(=O)(=O)c1ccc(Cl)cc1 (stereo unspecified)                786-0               GI50  > 100 µM (inactive)
 2  Cc1ccc(S(=O)(=O)n2c3c(c4ccccc42)CCN2CCC(Br)C[C@@H]32)cc1 (stereo partly specified)                786-0               GI50   16.6 µM (inactive)
 3     CCCn1c2c(c3ccccc3c1=O)C(=O)c1ccccc1-2                786-0               GI50   16.4 µM (inactive)
 4                          CN1CCN(CCCBr)CC1                786-0               GI50  > 100 µM (inactive)
 5   CC(=O)CCCCn1c(=O)c2c(nc(Br)n2C)n(C)c1=O                786-0               GI50  > 100 µM (inactive)
 6  CCc1cc2c(cc1CCCC(=O)O)CC1(Cc3ccc(C(=O)O)cc3C1)C2 (stereo unspecified)                786-0               GI50  > 100 µM (inactive)
 7  Cc1cccc(C2SCc3nc4ccccc4n32)c1 (stereo unspecified)                786-0               GI50   25.1 µM (inactive)
 8    CN(C)CCNC(=O)c1cccc2ccc(-c3cccnc3)nc12                786-0               GI50   5.89 µM (inactive)
 9  O=C1OCC2(CO1)CC1C=CC2C1 (stereo unspecified)                786-0               GI50  > 100 µM (inactive)
10  O=C(NC(=O)c1cc(-c2ccccc2)n[nH]1)c1ccccc1                786-0               GI50  > 100 µM (inactive)
11  O=C(CN1CCNCCN(CC(=O)N2CCCCC2)CCNCC1)N1CCCCC1                786-0               GI50   43.6 µM (inactive)
12    CC1=CC(=O)/C(=C/NC(=S)c2ccccc2)C(=O)O1                786-0               GI50  > 100 µM (inactive)
13  CC1CNc2ccccc2N=C1NN (stereo unspecified)                786-0               GI50  > 100 µM (inactive)
14      CSC1=N/C(=C\c2cccs2)C(=O)N1CN1CCCCC1                786-0               GI50   65.6 µM (inactive)
15  C[C@@]1(O)C2C3CC4C5C3C1[C@](O)(C42)[C@H]5Br (stereo partly specified)                786-0               GI50  > 100 µM (inactive)
16  CC1=C(C(=O)Nc2ccc([N+](=O)[O-])cc2)C(c2ccco2)C(C(=O)Nc2ccc([N+](=O)[O-])cc2)=C(C)N1                786-0               GI50   31.8 µM (inactive)
